Where do the numbers come from? From ChEMBL document CHEMBL1201862.

test system: RXF 393; test: NCI tumour cell line growth inhibition, 48 h
The source made the active and inactive calls. No stated cut-off is given here; in the data, active = GI50 up to about 1.1 µM and inactive = higher.
For each entry below, report its GI50 value.

Check out these entries, answers already filled in.
CCOC(=O)c1cn(CC)c2ccc3c(c2c1=O)S(=O)(=O)C=C3	47 µM (inactive)
O=C(O)CCCc1ccc2c(c1)CC1(C2)Cc2ccc(CCCC(=O)O)cc2C1	> 100 µM (inactive)
CC(C)(Cl)C(Br)CC/C(=C/CCl)CBr.CC(C)(Cl)C(Br)CC/C(=C\CCl)CBr (stereo not given)	2.62 µM (inactive)
COc1ccc(Cc2c3cc(O)c([O-])cc3cc[n+]2C)cc1	11.8 µM (inactive)
FC(F)(Sc1nc2ccccc2[nH]1)c1nc2ccccc2o1	> 100 µM (inactive)
N#CCN1C(=O)c2cc([N+](=O)[O-])cc3cc([N+](=O)[O-])cc(c23)C1=O	8.28 µM (inactive)

Value sought for every listed compound: GI50.
1. CCOC(=O)C(=O)N/N=C1\C(=O)Nc2ccccc21
2. C=C(CCC/C(C)=C/C=C/[C@@H](C)CCCc1ccoc1)C[C@@H]1OC(=O)[C@H](C)[C@@H]1O
3. COC(=O)Nc1nc2cc(S(=O)(=O)Nc3ccccn3)ccc2[nH]1
4. N#Cc1ccc(Oc2nc3ccccc3nc2-c2ccccc2)cc1

[A]
["> 100 µM (inactive)", "10.3 µM (inactive)", "39.6 µM (inactive)", "> 100 µM (inactive)"]

###

Field: GI50. Provide a value for each of the molecules that follow.
system: SK-MEL-2; test: NCI tumour cell line growth inhibition, 48 h
Calls of active or inactive are those of the source. Rule as the data show it: active = GI50 up to about 1.1 µM and inactive = higher.

CCSc1nc(=S)n(-c2ccccc2)c(C)c1C(C)=O	> 100 µM (inactive)
O=c1c2ccccc2nc(-c2cccc(Cl)c2)n1NCC1(O)OCC(O)C(O)C1O (stereo not drawn)	> 100 µM (inactive)
O=C1/C(=C/c2cccs2)N=C(c2ccccc2)N1c1nc2ccccc2s1	> 100 µM (inactive)
O=C(O)CCCc1ccc2c(c1)CC1(C2)Cc2ccc(CCCC(=O)O)cc2C1	> 100 µM (inactive)

// for each molecule below, give its GI50
1. COC(=O)N[C@@H]1C[C@H]2CC[C@]1(O[Si](C(C)C)(C(C)C)C(C)C)C(=O)C2
2. OCc1cc2c(cn1)[nH]c1ccc(NCc3ccccc3)cc12
3. COC(OC)c1cccc2c1C(=O)CCC1(CC2)OCCCCO1
4. Sc1ncc(-c2cncc(-c3cnc(S)nc3)n2)cn1

[A]
1: 17.4 µM (inactive); 2: 40.2 µM (inactive); 3: > 100 µM (inactive); 4: > 100 µM (inactive)

###

tested on: MOLT-4; assay: NCI tumour cell line growth inhibition, 48 h
Activity calls are given as the source filed them. No stated cut-off is given here; in the data, active = GI50 up to about 1.1 µM and inactive = higher.
Select the correct class. Options are active, inactive and nothing else.

S=C(NC/C(Br)=C/Br)Nc1cccc2ccccc12	inactive
O=C(NC(Cc1ccc(Cl)cc1)C(=O)O)c1ccc(I)cc1 (stereo not given)	inactive
O=c1[nH]/c(=C/c2ccc(OCc3ccccc3)cn2)c(=O)[nH]/c1=C/c1cccnc1	active
Oc1[nH]c(NCc2ccc(Cl)cc2)nc2ncnc1-2	inactive
O=C1OC(c2ccccc2)=N/C1=C/NC(Cc1ccccc1)C(=O)O (stereo not given)	inactive
CC1(c2cccc(N)c2)C2C(=O)NC(=O)C1C(=O)NC2=O (stereo not given)	inactive
COC(=O)[C@]1(c2cc3ccccc3n2S(=O)(=O)c2ccccc2)CC2CN(C(C)=O)C1CC2=O (stereo not given in full)	active
C=C(CCC/C(C)=C/C=C/[C@@H](C)CCCc1ccoc1)C[C@@H]1OC(=O)[C@H](C)[C@@H]1O	inactive

[Q] Could you check what this test reported for CC1(C)OC2C(CO)OC(n3ccc(=O)[nH]c3=O)C2O1 (stereo not given) ?
[A] inactive

[Q] Would you mind telling me which call this test gave CC(C)(Oc1ccc(Cl)cc1)C(=O)N(C(=O)N1CCC(c2ccccc2)CC1)c1ccccc1 ?
[A] inactive
